Hi! I'm sharing some AC50 results obtained with UniProtKB P21728.
Sequence (P21728 whole entry): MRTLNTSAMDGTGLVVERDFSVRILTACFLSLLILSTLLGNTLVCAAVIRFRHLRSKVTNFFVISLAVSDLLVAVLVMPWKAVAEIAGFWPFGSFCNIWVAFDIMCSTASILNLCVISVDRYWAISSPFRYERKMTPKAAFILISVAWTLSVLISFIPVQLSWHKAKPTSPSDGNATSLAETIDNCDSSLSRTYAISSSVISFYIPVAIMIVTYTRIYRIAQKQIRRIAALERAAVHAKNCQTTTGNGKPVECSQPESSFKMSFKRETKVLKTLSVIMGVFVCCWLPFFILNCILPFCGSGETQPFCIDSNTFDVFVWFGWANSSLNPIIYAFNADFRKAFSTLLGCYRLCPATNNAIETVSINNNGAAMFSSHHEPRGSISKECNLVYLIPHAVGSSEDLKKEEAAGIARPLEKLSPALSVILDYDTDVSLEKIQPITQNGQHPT
Reply with just the number (in µM).

Record lookup: for UniProtKB P21728, what AC50 belongs to CC(C)NC(=N)NC(=N)Nc1ccc(Cl)c(Cl)c1 ?
1.77

Further cases:
Record lookup: for UniProtKB P21728, what AC50 belongs to CN1CCCN(C(c2ccccc2)c2ccc(Cl)cc2)CC1 (stereo not given) ?
2.4

----------
target: Thromboxane A2 receptor (Homo sapiens, UniProt P21731); type: functional; note: assay procedure not described here
Sequence (P21731 whole entry): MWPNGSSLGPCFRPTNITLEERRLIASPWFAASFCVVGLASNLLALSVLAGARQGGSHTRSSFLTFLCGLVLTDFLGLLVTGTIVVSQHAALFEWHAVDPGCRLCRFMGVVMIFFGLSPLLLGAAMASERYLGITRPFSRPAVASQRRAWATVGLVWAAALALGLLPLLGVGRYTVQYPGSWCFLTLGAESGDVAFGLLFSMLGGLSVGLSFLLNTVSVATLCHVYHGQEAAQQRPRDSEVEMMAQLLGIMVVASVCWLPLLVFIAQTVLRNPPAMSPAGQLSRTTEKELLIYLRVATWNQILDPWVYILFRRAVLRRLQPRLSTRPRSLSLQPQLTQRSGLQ
AC50 listing for selected compounds.

Consider the reported AC50 for these compounds:
Quick one: AC50 of Clc1ccc(Cn2c(CN3CCCC3)nc3ccccc32)cc1 ?
> 10 µM

Now give it for CCOc1cc([C@@H](CS(C)(=O)=O)N2C(=O)c3cccc(NC(C)=O)c3C2=O)ccc1OC too.
> 30 µM

Now give it for S=P(N1CC1)(N1CC1)N1CC1 too.
> 10 µM

Now give it for CC(C)(O/N=C(\C(=O)N[C@@H]1C(=O)N2C(C(=O)[O-])=C(C[n+]3ccccc3)CS[C@H]12)c1csc(N)n1)C(=O)O too.
> 300 µM

Now give it for Cc1onc(-c2c(F)cccc2Cl)c1C(=O)N[C@@H]1C(=O)N2[C@@H]1SC(C)(C)[C@@H]2C(=O)O too.
> 30 µM

Further cases:
Quick one: AC50 of CC(C)c1cccc(C(C)C)c1O ?
> 30 µM

Now give it for Cc1nnc(SCC2=C(C(=O)O)N3C(=O)[C@@H](NC(=O)Cn4cnnn4)[C@H]3SC2)s1 too.
> 300 µM

----------
Hi! I'm sharing some AC50 results obtained with Muscarinic acetylcholine receptor M3 (Homo sapiens).
Sequence (P20309 whole entry): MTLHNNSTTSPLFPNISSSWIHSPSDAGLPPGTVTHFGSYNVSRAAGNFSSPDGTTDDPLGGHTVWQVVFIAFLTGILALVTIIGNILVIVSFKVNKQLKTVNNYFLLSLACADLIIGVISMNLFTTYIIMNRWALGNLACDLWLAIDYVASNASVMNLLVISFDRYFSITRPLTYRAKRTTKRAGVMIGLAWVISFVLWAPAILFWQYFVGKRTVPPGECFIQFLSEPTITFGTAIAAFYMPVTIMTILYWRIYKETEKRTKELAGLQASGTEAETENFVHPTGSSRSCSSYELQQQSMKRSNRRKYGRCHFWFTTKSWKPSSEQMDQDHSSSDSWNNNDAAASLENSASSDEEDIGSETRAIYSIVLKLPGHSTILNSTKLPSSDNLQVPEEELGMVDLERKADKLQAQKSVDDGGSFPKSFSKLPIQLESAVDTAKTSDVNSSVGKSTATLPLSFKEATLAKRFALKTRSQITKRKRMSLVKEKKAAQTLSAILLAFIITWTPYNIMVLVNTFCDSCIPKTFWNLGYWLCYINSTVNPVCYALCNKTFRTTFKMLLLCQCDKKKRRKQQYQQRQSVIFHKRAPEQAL

Consider the reported AC50 for these compounds:
Quick one: AC50 of CCCN1CCCC[C@H]1C(=O)Nc1c(C)cccc1C ?
> 30 µM

Now give it for COc1cc(C(C)=O)ccc1OCCCN1CCC(c2noc3cc(F)ccc23)CC1 too.
> 30 µM

Now give it for Oc1cc(O)c(Cl)cn1 too.
> 30 µM

Now give it for O=C1c2cccc3c2[C@H](CCC3)CN1[C@@H]1CN2CCC1CC2 too.
28 µM

Now give it for CC=CC1=C(C(=O)O)N2C(=O)[C@@H](NC(=O)[C@H](N)c3ccc(O)cc3)[C@H]2SC1 too.
> 30 µM

Further cases:
Quick one: AC50 of CC(=O)c1ccc(S(=O)(=O)NC(=O)NC2CCCCC2)cc1 [ACETOHEXAMIDE] ?
> 30 µM

Now give it for CCC(=O)O[C@](Cc1ccccc1)(c1ccccc1)[C@H](C)CN(C)C too.
16 µM

Now give it for C[N+](C)(C)CCOP(=O)(O)OP(=O)([O-])OC[C@H]1O[C@@H](n2ccc(N)nc2=O)[C@H](O)[C@@H]1O too.
> 30 µM

Now give it for O=C1OC(OC(=O)c2cccnc2Nc2cccc(C(F)(F)F)c2)c2ccccc21 (stereo unspecified) [TALNIFLUMATE] too.
> 30 µM

Now give it for Cc1cccc(C)c1NC(=O)CC12CCCN1CCC2 [PILSICAINIDE] too.
> 30 µM

Now give it for O=c1[nH]c2ccccc2n1CCCN1CCN(C(c2ccccc2)c2ccccc2)CC1 [OXATOMIDE] too.
3.5 µM

Now give it for O=C(O)COCCN1CCN(C(c2ccccc2)c2ccc(Cl)cc2)CC1 (stereo unspecified) too.
> 10 µM

Now give it for CC(Cc1cccc(C(F)(F)F)c1)NCCOC(=O)c1ccccc1 (stereo unspecified) too.
27 µM

Now give it for OC[C@H]1O[C@@H](Oc2cc(O)cc(/C=C/c3ccc(O)cc3)c2)[C@H](O)[C@@H](O)[C@@H]1O too.
> 30 µM

Now give it for CCCC(C)(COC(N)=O)COC(N)=O [MEPROBAMATE] too.
> 30 µM

Now give it for CC(=O)Nc1ccc(CC(=O)O)cc1 too.
> 30 µM

Now give it for COc1cc2[nH]c(C)c(CCN3CCN(c4ccccc4)CC3)c2cc1OC too.
> 30 µM

----------
Hi! I'm sharing some AC50 results obtained with Sodium-dependent noradrenaline transporter (Homo sapiens, UniProt P23975).
Sequence (P23975 whole entry): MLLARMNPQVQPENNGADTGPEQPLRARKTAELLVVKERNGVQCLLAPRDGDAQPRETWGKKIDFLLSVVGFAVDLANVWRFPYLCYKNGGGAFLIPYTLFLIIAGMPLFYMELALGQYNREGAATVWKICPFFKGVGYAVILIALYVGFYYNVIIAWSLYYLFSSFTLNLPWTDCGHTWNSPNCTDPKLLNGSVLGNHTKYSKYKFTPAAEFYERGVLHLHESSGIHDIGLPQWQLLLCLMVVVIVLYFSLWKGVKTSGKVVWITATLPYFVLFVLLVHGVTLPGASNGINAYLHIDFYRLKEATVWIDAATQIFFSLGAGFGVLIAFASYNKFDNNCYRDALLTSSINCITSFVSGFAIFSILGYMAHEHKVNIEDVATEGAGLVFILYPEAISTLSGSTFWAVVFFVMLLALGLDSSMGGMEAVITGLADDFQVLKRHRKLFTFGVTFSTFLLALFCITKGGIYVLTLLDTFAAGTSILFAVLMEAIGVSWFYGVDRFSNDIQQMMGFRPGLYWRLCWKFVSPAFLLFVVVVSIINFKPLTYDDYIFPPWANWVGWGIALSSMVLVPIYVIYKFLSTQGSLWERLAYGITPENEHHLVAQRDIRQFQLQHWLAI

Quick one: AC50 of CN(C)C/C=C/C(=O)Nc1cc2c(Nc3ccc(F)c(Cl)c3)ncnc2cc1O[C@H]1CCOC1 ?
> 30 µM

Now give it for O=c1[nH]c2ccccc2n1CCCN1CCN(C(c2ccccc2)c2ccccc2)CC1 [OXATOMIDE] too.
3.2 µM

Now give it for Cc1cc(C2CCCCC2)n(O)c(=O)c1 too.
> 30 µM

Shift focus to the following entry.
Quick one: AC50 of CN(Cc1cnc2nc(N)nc(N)c2n1)c1ccc(C(=O)N[C@@H](CCC(=O)O)C(=O)O)cc1 [METHOTREXATE] ?
> 30 µM

----------
Hi! I'm sharing some AC50 results obtained with UniProt:P30518.
Sequence (P30518 whole entry): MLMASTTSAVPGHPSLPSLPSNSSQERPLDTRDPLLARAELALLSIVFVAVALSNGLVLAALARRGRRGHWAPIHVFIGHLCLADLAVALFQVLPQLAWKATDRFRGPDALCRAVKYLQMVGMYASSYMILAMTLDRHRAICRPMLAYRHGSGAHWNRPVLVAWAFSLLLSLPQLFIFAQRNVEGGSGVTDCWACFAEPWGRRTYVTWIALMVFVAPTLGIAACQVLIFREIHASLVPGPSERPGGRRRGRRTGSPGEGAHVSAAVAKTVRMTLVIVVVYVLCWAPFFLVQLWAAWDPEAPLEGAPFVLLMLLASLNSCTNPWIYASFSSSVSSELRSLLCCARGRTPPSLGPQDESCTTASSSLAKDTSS

Quick one: AC50 of C/C=C(/C(=C/C)c1ccc(O)cc1)c1ccc(O)cc1 ?
> 10 µM

Now give it for CCOc1nc2cccc(C(=O)O)c2n1Cc1ccc(-c2ccccc2-c2nnn[nH]2)cc1 too.
> 30 µM

Now give it for C[C@@H]1C[C@H]2[C@@H]3C[C@H](F)C4=CC(=O)C=C[C@]4(C)[C@@]3(F)[C@@H](O)C[C@]2(C)[C@@]1(OC(=O)c1ccco1)C(=O)SCF [FLUTICASONE FUROATE] too.
> 10 µM

Now give it for c1ccc(C2(N3CCCCC3)CCCCC2)cc1 too.
> 30 µM

Now give it for COC(=O)[C@H]1[C@H]2C[C@@H]3c4[nH]c5cc(OC)ccc5c4CCN3C[C@H]2C[C@@H](OC(=O)c2cc(OC)c(OC)c(OC)c2)[C@@H]1OC too.
> 10 µM

Now give it for Cc1nc(Nc2ncc(C(=O)Nc3c(C)cccc3Cl)s2)cc(N2CCN(CCO)CC2)n1 too.
> 30 µM

Now give it for O=C(CCCN1CCC(O)(c2ccc(Br)cc2)CC1)c1ccc(F)cc1 too.
> 30 µM

Now give it for CCC(NC(C)C)C(O)c1ccc(O)c2[nH]c(=O)ccc12 (stereo unspecified) too.
> 30 µM

Now give it for CCCCOc1ccc(C(=O)CCN2CCCCC2)cc1 too.
> 30 µM

Now give it for CCN1CCCC1CNC(=O)c1cc(S(=O)(=O)CC)ccc1OC (stereo unspecified) [SULTOPRIDE] too.
> 30 µM

Further cases:
Quick one: AC50 of COc1ccccc1OC1(C)OC(=O)c2ccccc2O1 (stereo unspecified) ?
> 30 µM

Now give it for CN1CCN=C(c2ccccc2)c2cc(Cl)ccc21 too.
> 30 µM

Now give it for NNC(=O)c1ccncc1 too.
> 30 µM

Now give it for Cc1ccccc1-n1c(CF)nc2ccc(N)cc2c1=O too.
> 30 µM

Now give it for CC[C@H](C)C(=O)O[C@H]1C[C@@H](C)C=C2C=C[C@H](C)[C@H](CC[C@@H]3C[C@@H](O)CC(=O)O3)[C@H]21 too.
> 30 µM

Now give it for COc1cc(C(=O)NC2CCCNC2)cc(OC)c1OC (stereo unspecified) [TROXIPIDE] too.
> 30 µM

Now give it for COc1cc(N)c(Cl)cc1C(=O)NC1CCN(CCCOc2ccc(F)cc2)CC1OC (stereo unspecified) [CISAPRIDE] too.
> 30 µM

Now give it for CCC1(c2ccc(N)cc2)CCC(=O)NC1=O (stereo unspecified) [AMINOGLUTETHIMIDE] too.
> 30 µM

Now give it for O=C(O)c1ccc(NC(=O)[C@H](Cc2ccc(O)cc2)NC(=O)c2ccccc2)cc1 [BENTIROMIDE] too.
> 10 µM

Now give it for CCOC(=O)C1=C(C)NC(C)=C(C(=O)OCC)C1c1ccccc1/C=C/C(=O)OC(C)(C)C too.
> 30 µM

Now give it for CC1(C)S[C@@H]2[C@H](NC(=O)C(C(=O)O)c3ccccc3)C(=O)N2[C@H]1C(=O)O (stereo partly specified) too.
> 30 µM

----------
biological target: UniProt:P08172
Sequence (P08172 whole entry): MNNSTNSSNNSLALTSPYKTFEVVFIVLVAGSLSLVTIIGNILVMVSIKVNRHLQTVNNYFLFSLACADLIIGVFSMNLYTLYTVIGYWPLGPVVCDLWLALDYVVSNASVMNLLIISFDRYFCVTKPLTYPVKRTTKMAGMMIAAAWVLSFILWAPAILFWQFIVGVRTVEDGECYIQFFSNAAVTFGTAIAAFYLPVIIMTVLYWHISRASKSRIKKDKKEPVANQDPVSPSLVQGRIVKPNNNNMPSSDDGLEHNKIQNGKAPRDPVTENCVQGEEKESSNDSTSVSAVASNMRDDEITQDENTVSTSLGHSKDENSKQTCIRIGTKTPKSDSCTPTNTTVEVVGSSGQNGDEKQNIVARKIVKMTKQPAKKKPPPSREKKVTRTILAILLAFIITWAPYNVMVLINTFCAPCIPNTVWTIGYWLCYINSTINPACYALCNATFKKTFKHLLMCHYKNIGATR
property-measured: AC50

Quick one: AC50 of CN(C)c1ccc(O)c2c1C[C@H]1C[C@H]3[C@H](N(C)C)C(O)=C(C(N)=O)C(=O)[C@@]3(O)C(O)=C1C2=O ?
> 10 µM

Further cases:
Quick one: AC50 of CC[N+](C)(CC)CCOC(=O)C(O)(c1ccccc1)C1CCCCC1 (stereo not given) ?
0.003 µM

Now give it for COc1cccc(C(=O)CCN[C@@H](C)[C@H](O)c2ccccc2)c1 too.
> 30 µM

Now give it for NC[C@H]1CC[C@H](C(=O)Oc2ccc(CCC(=O)O)cc2)CC1 [CETRAXATE] too.
> 30 µM

Now give it for CCCn1cnc2c1c(=O)n(CCCCC(C)=O)c(=O)n2C too.
> 30 µM
